Reference for the values: patent US6849661B2

# Tested on: rat aortic tissue
# condition_set: read-out: IC50 (M), Aorta; KCl 80 mM contracted rat aorta; listed as R Isomer
measurement_name: IC50 (M)
Kindly provide the numeric value in M only, without the unit symbol.

Prompt line: Fill in: IC50 of COc1ccc(CCN(C)CCC[C@](C#N)(c2ccc(OC)c(OC)c2)C(C)C)cc1OC [(R)-verapamil] is ___
Response line: 4.47e-06
